In this section, each of the compounds is paired with its reported Learning (s).
test system: AlCl3-induced AD rat model; assay: Morris water maze (MWM) test in AlCl3-induced AD rats; format: in vivo; details: escape latency, mean ± SE, n = 6
Reported property: Learning (s)

In [3]: df
Out[3]:
                                   compound               result
0  COc1ccc(N2CC(=O)Oc3sc4c(c3C2=O)CCCCC4)cc1   26.83 ± 1.2 ^abc s
1  COc1cc2c(cc1OC)C(=O)C(CC1CCN(Cc3ccccc3)CC1)C2 (stereo not drawn) [Donepezil, reference compound]   14.78 ± 0.83 ^ab s
2  O=C1CN(c2ccc(O)cc2)C(=O)c2c(sc3c2CCCCC3)O1  19.17 ± 1.01 ^abc s
3  CCOc1ccc(N2CC(=O)Oc3sc4c(c3C2=O)CCCCC4)cc1     21 ± 1.13 ^abc s
4   O=C1CN(c2ccccc2)C(=O)c2c(sc3c2CCCCC3)O1  25.17 ± 1.25 ^abc s
5  N#Cc1ccc(N2CC(=O)Oc3sc4c(c3C2=O)CCCCC4)cc1  14.17 ± 0.95 ^abc s
6         CCOC(=O)c1c(OC(=O)CCl)sc2c1CCCCC2   31.5 ± 1.48 ^abc s
7                 CCOC(=O)c1c(O)sc2c1CCCCC2   33.33 ± 0.8 ^abc s
8  O=C1CN(c2ccc(Cl)cc2)C(=O)c2c(sc3c2CCCCC3)O1   23.5 ± 1.23 ^abc s
